System: Septoria tritici (SEPTTR)
assay.comment: Septoria blotch of wheat foliar protectant test
Assay type: in vivo
conditions: Zymoseptoria tritici; 200 ppm foliar, inoculated one day after treatment; read-out: Activity against fungal diseases SEPTTR
readout.name: pest or weed control at 200 ppm

Request: Given the entry Oc1ccc2c(c1)CC(Nc1ncnc3c(F)ccc(F)c13)C2 (stereo not shown) , report its measured pest or weed control at 200 ppm.
Result: 0 to 49%

Request: Looking for the measured pest or weed control at 200 ppm of "COc1ccc(CCNc2ncnc3c(F)ccc(F)c23)cc1Cl" , can you help?
Result: 0 to 49%

Request: Record request: pest or weed control at 200 ppm value, item "Cc1cc(CCNc2ncnc3c(F)ccc(F)c23)ccc1Oc1cc(C(F)(F)F)cc[n+]1[O-]"
Result: 80 to 100%

Request: Fill in the blank: the reported pest or weed control at 200 ppm of "Fc1cc(Oc2cc(C(F)(F)F)ccn2)ccc1CCNc1ncnc2c(F)ccc(F)c12" is ____.
Result: 80 to 100%

Request: Name the reported pest or weed control at 200 ppm value associated with the molecule "C=Cc1cc(CCNc2ncnc3c(F)ccc(F)c23)ccc1Oc1cc(C(F)(F)F)ccn1"
Result: 80 to 100%

Request: Need pest or weed control at 200 ppm, item "COc1cc(CCNc2ncnc3c(F)ccc(F)c23)ccc1Oc1ccnc(Cl)c1"
Result: 80 to 100%

Request: Need pest or weed control at 200 ppm, item "Cc1cc(CCNc2ncnc3c(F)ccc(F)c23)ccc1Oc1ccnc(C(F)(F)F)c1"
Result: 80 to 100%

Request: Form field: reported pest or weed control at 200 ppm of "Fc1ccc(F)c2c(NCCc3ccc(Oc4cnccc4C(F)(F)F)c(Cl)c3)ncnc12"
Result: 80 to 100%

Request: Entry "[O-][n+]1ccc(C(F)(F)F)c(Oc2ccc(CCNc3ncnc4c(F)ccc(F)c34)cc2)c1" has what pest or weed control at 200 ppm?
Result: 80 to 100%

Request: Returns the measured pest or weed control at 200 ppm for the input molecule. Input: "[O-][n+]1ccc(C(F)(F)F)cc1Oc1ccc(CCNc2ncnc3c(F)ccc(F)c23)cc1"
Result: 80 to 100%

Request: Any idea what its pest or weed control at 200 ppm is? The molecule is "Cc1cc(CCNc2ncnc3c(F)cc(F)c(F)c23)ccc1Oc1cc(C(F)(F)F)cc[n+]1[O-]"
Result: 80 to 100%

Request: Entry "COc1cc(CCNc2ncnc3c(F)ccc(F)c23)ccc1Oc1ccnc(C(F)(F)F)c1" has what pest or weed control at 200 ppm?
Result: 80 to 100%

Request: I'd like to know its pest or weed control at 200 ppm. The molecule in question is "COc1ccc(CCNc2ncnc3c(F)ccc(F)c23)c(C)c1"
Result: 80 to 100%

Request: Returns the measured pest or weed control at 200 ppm for the input molecule. Input: "Cc1cc(CCNc2ncnc3c(F)ccc(F)c23)ccc1Oc1cc(C(C)(F)F)ccn1"
Result: 80 to 100%

Request: For the molecule shown here, "Oc1ccc(CCNc2ncnc3c(F)cc(F)c(F)c23)cc1" , give the reported pest or weed control at 200 ppm.
Result: 0 to 49%

Request: What value of measured pest or weed control at 200 ppm is listed for "Oc1cc(CCNc2ncnc3c(F)ccc(F)c23)ccc1Oc1cc(C(F)(F)F)ccn1" ?
Result: 50 to 79%

Request: Return reported pest or weed control at 200 ppm; argument: "CCCOc1cc(CCNc2ncnc3c(F)ccc(F)c23)ccc1Oc1cc(C(F)(F)F)ccn1"
Result: 80 to 100%

Request: For "Fc1ccc(F)c2c(NCCc3ccc(Oc4cc(Cl)nc(C(F)(F)F)n4)cc3)ncnc12" , what is its reported pest or weed control at 200 ppm?
Result: 0 to 49%

Request: Param item = "COc1cc(CCNc2ncnc3c(F)ccc(F)c23)ccc1Oc1ncc(F)c(C(F)(F)F)c1F" ; retrieve measured pest or weed control at 200 ppm.
Result: 80 to 100%

Request: So what's the measured pest or weed control at 200 ppm for this one? "COc1cc(CCNc2ncnc3c(F)ccc(F)c23)ccc1Oc1cc(C(F)(F)F)cc(C)n1"
Result: 80 to 100%

Request: Entry under review: "CC(F)(F)c1ccnc(Oc2ccc(CCNc3ncnc4c(F)ccc(F)c34)cc2)c1" . Reported pest or weed control at 200 ppm?
Result: 80 to 100%

Request: Need pest or weed control at 200 ppm, item "Fc1cnc(C(F)(F)F)c(F)c1Oc1ccc(CCNc2ncnc3c(F)ccc(F)c23)cc1"
Result: 80 to 100%

Request: Need pest or weed control at 200 ppm of "Fc1cc(CCNc2ncnc3c(F)ccc(F)c23)ccc1Oc1ccc(C(F)(F)F)cn1" , thanks.
Result: 80 to 100%

Request: # pest or weed control at 200 ppm lookup, item "Nc1c(F)c(F)nc(Oc2ccc(CCNc3ncnc4c(F)ccc(F)c34)cc2)c1F"
Result: 50 to 79%

Request: Give its pest or weed control at 200 ppm value. Item: "Fc1cc(CCNc2ncnc3c(F)ccc(F)c23)ccc1Oc1cc(C(F)(F)F)ccn1"
Result: 80 to 100%

Request: Any idea what its pest or weed control at 200 ppm is? The molecule is "COc1cc(CCNc2ncnc3c(F)cc(F)c(F)c23)ccc1Oc1cc(C(F)(F)F)ccn1"
Result: 80 to 100%

Request: I'd like to know its pest or weed control at 200 ppm. The molecule in question is "COc1cc(CCNc2ncnc3c(F)ccc(F)c23)ccc1Oc1c(Cl)cnc(C(F)(F)F)c1Cl"
Result: 80 to 100%

Request: So what's the measured pest or weed control at 200 ppm for this one? "N#Cc1c(Cl)cncc1Oc1ccc(CCNc2ncnc3c(F)ccc(F)c23)cc1"
Result: 50 to 79%
